Measured TGI values are reported for all entries that follow.
system: UO-31 renal; test: NCI tumour cell line growth inhibition, 48 h
Measurement Label: TGI

| Compound | Assay Value |
| --- | --- |
| C=C(C)[C@@H]1CC[C@]2(C(=O)O)CC[C@]3(C)[C@H](CCC4[C@@]5(C)CC[C@H](C(=O)/C=C/c6ccc(O)c(O)c6)C(C)(C)[C@@H]5CC[C@]43C)[C@@H]12 (stereo partly drawn) | 12.9 µM |
| CC(C)(C)C1CC[C@H](O)[C@H]([C@H](O)CC2CC(=O)N(c3ccccc3)C(=O)C2)C1 (stereo partly drawn) | > 100 µM |
| O=S(=O)(c1ccc(O)c(C=Nc2ccc(Cl)cc2)c1)c1ccc(O)c(C=Nc2ccc(Cl)cc2)c1 | > 100 µM |
| C[C@@H]1C[C@]2(C[C@@H](C)C3[C@@H](CC4(C)[C@@H]5CCC6C(C)(C)OC(=O)C=C[C@]67C[C@@]5(CC[C@]34C)OO7)O2)OC1=O (stereo partly drawn) | > 100 µM |
| O=C1c2ccccc2-c2[nH]c3cn[nH]c(=O)c3c21 | > 100 µM |
| O=C(CC1Sc2ccccc2NC1=O)Nc1ccc(Cl)cc1 (stereo not drawn) | > 100 µM |
| CO[C@@]12[C@@H]3NC3CN1C1=C(C(=O)C(N)=C(C)C1=O)[C@@H]2COC(N)=O (stereo partly drawn) | 3.04 µM |
| C=C1C(=O)O[C@H]2[C@H]3O[C@@H](C[C@@H]12)[C@](C)(O)CC[C@@H]1O[C@@]1(C)CCC[C@H]3C | 69.3 µM |
